biological target: human S1P1 receptor (Homo sapiens); construct: membranes used; experiment: GTP γ35S binding assay for S1P1 activity; settings: membranes of cells stably expressing S1P1 receptor, agonist potency
Sequence (P21453 whole entry): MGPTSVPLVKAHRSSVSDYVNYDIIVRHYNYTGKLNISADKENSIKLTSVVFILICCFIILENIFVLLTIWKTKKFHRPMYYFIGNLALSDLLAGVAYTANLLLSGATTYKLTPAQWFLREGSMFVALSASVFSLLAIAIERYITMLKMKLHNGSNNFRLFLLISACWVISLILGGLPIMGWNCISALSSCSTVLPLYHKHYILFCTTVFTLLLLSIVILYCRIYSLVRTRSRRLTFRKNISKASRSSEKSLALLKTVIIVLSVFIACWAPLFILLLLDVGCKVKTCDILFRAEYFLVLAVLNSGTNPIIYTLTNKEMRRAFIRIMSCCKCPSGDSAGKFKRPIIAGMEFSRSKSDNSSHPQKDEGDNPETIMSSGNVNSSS
Below, each entry is listed with its recorded EC50.
Write the number in nM without appending the unit.

Task item: Would you kindly share the measured EC50 for O=C(O)C1CN(Cc2ccc(-c3nnc(SCc4cccc(Cl)c4F)o3)cc2)C1 ?
Reply: 18.6

Task item: Would you kindly share the measured EC50 for CCC(Sc1nnc(-c2ccc(CN3CC(C(=O)O)C3)cc2C)o1)c1cccc([N+](=O)[O-])c1 (stereo not drawn) ?
Reply: 60.9

Moving on to another compound below.
Task item: Would you kindly share the measured EC50 for Cc1cc(CN2CC(C(=O)O)C2)ccc1-c1nnc(SC(C)c2cccc([N+](=O)[O-])c2)o1 (stereo not drawn) ?
Reply: 16.7
